Below, each entry is listed alongside its reported IC50.
Test system: CEM-DNR
Run Description: MTS antiproliferative assay CEM-DNR
Format: cell-based
Condition Notes: Homo sapiens, 72 h of incubation, daunorubicin-resistant
Parameter: IC50 (µM)

{"columns": ["Compound", "Target Desc", "Test Result"],
 "data": [
  ["COc1ccc2c(c1)CC/C(=C\\c1cccnc1Oc1ccc(F)cc1)C2=O [Compound 14]", "CEM-DNR", 41.3],
  ["COc1ccc2c(c1)C(=O)/C(=C/c1cccnc1Oc1ccc(F)cc1)CC2 [Compound 15]", "CEM-DNR", 23.1],
  ["COc1ccc2c(c1)CC/C(=C\\c1cccnc1Oc1ccc(Cl)cc1)C2=O [Compound 22]", "CEM-DNR", 22.5]
]}

---

Each item that follows carries a reported IC50.
System: K562
Run Description: MTS antiproliferative assay K562
Type: cell-based, human
Condition Notes: Homo sapiens, K562, 72 h, 72 h of incubation
Parameter: IC50 (µM)

{"columns": ["Molecule", "Parameter", "Bound Type", "Test Result"],
 "data": [
  ["O=C1/C(=C/c2cccnc2Oc2ccccc2)CCc2ccccc21 [Compound 8]", "IC50", ">", 50],
  ["COc1ccc2c(c1)C(=O)/C(=C/c1cccnc1Oc1ccccc1)CC2 [Compound 11]", "IC50", ">", 50],
  ["COc1cccc2c1CC/C(=C\\c1cccnc1Oc1ccc(Br)cc1)C2=O [Compound 17]", "IC50", "=", 32],
  ["O=C1/C(=C/c2cccnc2Oc2ccc(Cl)cc2)CCc2ccccc21 [Compound 20]", "IC50", "=", 23.6],
  ["O=C1/C(=C/c2cccnc2Oc2ccc(F)cc2)CCc2ccccc21 [Compound 12]", "IC50", "=", 22.4],
  ["COc1cccc2c1CC/C(=C\\c1cccnc1Oc1ccc(F)cc1)C2=O [Compound 13]", "IC50", "=", 23.4],
  ["COc1ccc2c(c1)C(=O)/C(=C/c1cccnc1Oc1ccc(Cl)cc1)CC2 [Compound 23]", "IC50", ">", 50]
]}

---

Reported EC50 values for a set of compounds
Test system: VERO cells
Run Description: MTT cytotoxicity on VERO cells
Format: cell-based, African green monkey
Condition Notes: Chlorocebus sabaeus, 72 h
Procedure: Vero cells were derived from the kidney of an African green monkey, cells were maintained in Dulbecco’s Modified Eagle’s Medium (DMEM), supplemented with 10% heat-inactivated FBS and penicillin-streptomycin solution 1% at 37 °C, 5% CO2 atmosphere and > 95% humidity. We evaluated through a colorimetric method the effect of compounds 8–23 on the promastigotes of L. brasiliensis. […] Cells were counted in suspension and seeded at 20 × 10^3 cells/well. […]

{"columns": ["Molecule Smiles", "EC50"],
 "data": [
  ["O=C1/C(=C/c2cccnc2Oc2ccc(Cl)cc2)CCc2ccccc21", "> 1000 µM"],
  ["COc1ccc2c(c1)C(=O)/C(=C/c1cccnc1Oc1ccccc1)CC2", "< 100 µM"],
  ["O=C1/C(=C/c2cccnc2Oc2ccccc2)CCc2ccccc21", "> 100 µM"],
  ["COc1ccc2c(c1)CC/C(=C\\c1cccnc1Oc1ccc(Cl)cc1)C2=O", "> 100 µM"],
  ["COc1cccc2c1CC/C(=C\\c1cccnc1Oc1ccccc1)C2=O", "< 100 µM"]
]}

---

Tested on: U2OS
Run Description: MTS antiproliferative assay U2OS
Format: cell-based
Condition Notes: Homo sapiens, 72 h of incubation

{"columns": ["Molecule Smiles", "IC50"],
 "data": [
  ["COc1ccc2c(c1)CC/C(=C\\c1cccnc1Oc1ccccc1)C2=O", "> 50 µM"],
  ["COc1cccc2c1CC/C(=C\\c1cccnc1Oc1ccc(Br)cc1)C2=O", "> 50 µM"],
  ["COc1cccc2c1CC/C(=C\\c1cccnc1Oc1ccc(F)cc1)C2=O", "21 µM"],
  ["COc1ccc2c(c1)C(=O)/C(=C/c1cccnc1Oc1ccc(F)cc1)CC2", "26.3 µM"],
  ["O=C1/C(=C/c2cccnc2Oc2ccccc2)CCc2ccccc21", "> 50 µM"],
  ["COc1ccc2c(c1)C(=O)/C(=C/c1cccnc1Oc1ccc(Cl)cc1)CC2", "> 50 µM"],
  ["COc1ccc2c(c1)C(=O)/C(=C/c1cccnc1Oc1ccccc1)CC2", "> 50 µM"],
  ["COc1ccc2c(c1)C(=O)/C(=C/c1cccnc1Oc1ccc(Br)cc1)CC2", "> 50 µM"],
  ["COc1ccc2c(c1)CC/C(=C\\c1cccnc1Oc1ccc(F)cc1)C2=O", "> 50 µM"]
]}

---

System: promastigotes of Leishmania (V.) braziliensis strain MHOM/CO/87/UA301
Run Description: MTT viability of L. braziliensis promastigotes;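 further: promastigote proliferation in 96-well plates, MTT reduction read at 570 nm, EC50 derived from growth curves, cytotoxicity CC50 likewise by MTT in BMDM and VERO cells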
Assay type: cell-based
Condition Notes: promastigotes, 72 h
Collected EC50 values appear next to each entry.

{"columns": ["Molecule Smiles", "EC50"],
 "data": [
  ["O=C1/C(=C/c2cccnc2Oc2ccc(Cl)cc2)CCc2ccccc21", "> 60 µM"],
  ["COc1ccc2c(c1)C(=O)/C(=C/c1cccnc1Oc1ccccc1)CC2", "> 60 µM"],
  ["COc1cccc2c1CC/C(=C\\c1cccnc1Oc1ccccc1)C2=O", "> 60 µM"]
]}

---

Tested on: CEM-DNR
Run Description: MTS antiproliferative assay CEM-DNR
Format: cell-based
Condition Notes: Homo sapiens, 72 h of incubation, daunorubicin-resistant
Measured IC50, listed per entry for reference.

{"columns": ["Molecule Smiles", "Value Units", "IC50"],
 "data": [
  ["O=C1/C(=C/c2cccnc2Oc2ccc(Cl)cc2)CCc2ccccc21", "µM", 28.2],
  ["COc1cccc2c1CC/C(=C\\c1cccnc1Oc1ccc(Br)cc1)C2=O", "µM", 31.7],
  ["COc1cccc2c1CC/C(=C\\c1cccnc1Oc1ccccc1)C2=O", "µM", 26.3],
  ["COc1ccc2c(c1)C(=O)/C(=C/c1cccnc1Oc1ccc(Br)cc1)CC2", "µM", 20]
]}

---

Test system: K562-TAX
Run Description: MTS antiproliferative assay K562-TAX
Assay type: cell-based, human
Condition Notes: Homo sapiens, K562-Tax, 72 h, 72 h of incubation; paclitaxel-resistant

{"columns": ["Compound", "Target Desc", "Bound Type", "IC50, µM"],
 "data": [
  ["COc1ccc2c(c1)CC/C(=C\\c1cccnc1Oc1ccc(Cl)cc1)C2=O [Compound 22]", "K562-TAX", ">", 21.4],
  ["COc1cccc2c1CC/C(=C\\c1cccnc1Oc1ccccc1)C2=O [Compound 9]", "K562-TAX", "=", 24.1],
  ["COc1cccc2c1CC/C(=C\\c1cccnc1Oc1ccc(Br)cc1)C2=O [Compound 17]", "K562-TAX", "=", 31.4],
  ["O=C1/C(=C/c2cccnc2Oc2ccc(Cl)cc2)CCc2ccccc21 [Compound 20]", "K562-TAX", "=", 32.5]
]}
